TARGET_OR_SYSTEM: T1, monkey GPC3-His protein (monkey)
T1 construct: Bought protein; also called monkey GPC3 protein
EXPERIMENT_DESCRIPTION: ELISA, monkey GPC3-His coated; antibody 0.004 nM
I'd be grateful if you could share measured OD450 nm for these entries.
One number for each entry.

hAb005LH1L1b (antibody, human IgG1, V domains shown, Humanized F3.54.12, H1+L1b) VH: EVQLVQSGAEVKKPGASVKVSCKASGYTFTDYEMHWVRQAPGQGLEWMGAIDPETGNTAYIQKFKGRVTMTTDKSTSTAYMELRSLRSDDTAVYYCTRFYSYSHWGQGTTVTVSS VL: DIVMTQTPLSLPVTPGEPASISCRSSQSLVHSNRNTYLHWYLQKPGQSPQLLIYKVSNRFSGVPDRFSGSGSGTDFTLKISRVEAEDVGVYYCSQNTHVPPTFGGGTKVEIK : 0.215
hAb001H1aL1a (antibody, human IgG1, V domains shown, Humanized F2.169.2, H1a+L1a) VH: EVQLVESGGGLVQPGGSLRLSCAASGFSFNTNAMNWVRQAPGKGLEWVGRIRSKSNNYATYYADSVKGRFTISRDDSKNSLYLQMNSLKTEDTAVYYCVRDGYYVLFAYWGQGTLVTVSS VL: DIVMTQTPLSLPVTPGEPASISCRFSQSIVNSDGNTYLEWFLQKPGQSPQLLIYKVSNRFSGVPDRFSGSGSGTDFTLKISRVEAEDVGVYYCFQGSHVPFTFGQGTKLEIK : 0.132

Lab note: next binder to report on.
IN: Value lookup for OD450 nm; key = hAb001H2L1 (antibody, human IgG1, V domains shown, Humanized F2.169.2, H2+L1) VH: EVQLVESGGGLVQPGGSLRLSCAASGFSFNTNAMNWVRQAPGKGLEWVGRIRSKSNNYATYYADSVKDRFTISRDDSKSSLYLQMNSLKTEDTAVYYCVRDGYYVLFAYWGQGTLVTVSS VL: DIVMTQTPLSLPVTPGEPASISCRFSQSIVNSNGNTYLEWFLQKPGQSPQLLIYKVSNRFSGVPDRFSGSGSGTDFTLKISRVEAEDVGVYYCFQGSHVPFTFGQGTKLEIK
OUT: 0.4

Hello, the source for this data is patent US20260116991A1, in case you need it.
